Exercise: for every item that follows, state its recorded CCNE1 HIBIT Protein Quantification Maximum.
# TARGET OR SYSTEM: CCNE1 (Homo sapiens)
# Construct: host or cells: HEK293-CCNE1-Hibit
# Sequence (P24864 whole entry): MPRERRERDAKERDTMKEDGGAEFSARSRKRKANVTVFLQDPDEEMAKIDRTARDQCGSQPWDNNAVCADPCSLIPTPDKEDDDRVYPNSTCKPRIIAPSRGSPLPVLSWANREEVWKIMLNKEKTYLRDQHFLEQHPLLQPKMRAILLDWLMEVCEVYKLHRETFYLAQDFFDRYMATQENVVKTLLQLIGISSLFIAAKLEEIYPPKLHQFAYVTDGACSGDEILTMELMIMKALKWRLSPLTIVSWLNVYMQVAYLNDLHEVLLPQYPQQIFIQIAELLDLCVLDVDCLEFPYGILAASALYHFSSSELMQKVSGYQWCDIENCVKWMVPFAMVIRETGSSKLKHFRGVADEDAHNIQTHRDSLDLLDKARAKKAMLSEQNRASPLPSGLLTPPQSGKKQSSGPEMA
# ASSAY NOTES: HiBit Assay Protocol for CCNE1 (HIBIT protein quantification, degradation)
# Assay type: cell-based
# RUN PARAMETERS: HEK293-CCNE1-Hibit cells, compound treatment for 6 hours
Numbers only, in %.

C[C@@H]1CN([C@@H](C)c2cccc(S(=O)(=O)N3CC[C@H](Nc4ncc5c(n4)N([C@@H]4CCC[C@@H](O)C4)C(=O)C54CC4)[C@H](F)C3)c2)CCN1c1ccc2c(N3CCC(=O)NC3=O)nn(C)c2c1 | 43

Give the measured CCNE1 HIBIT Protein Quantification Maximum of C[C@H](c1cccc(S(=O)(=O)N2CC[C@H](Nc3ncc4c(n3)N([C@@H]3CCC[C@@H](O)C3)C(=O)C43CC3)[C@H](F)C2)c1)N1CCN(c2ccc3c(N4CCC(=O)NC4=O)nn(C)c3c2)[C@@H](C)C1 .
38

Data provenance: patent US20260070917A1
